Numbers sourced from patent US11351178B2.

For reference, pIC50 measured on HDAC4 (Homo sapiens, UniProt P56524):
pIC50: −log10 of the molar value.
READOUT_KIND: pIC50

>>> endpoint_value("COc1ccc(C(=O)N[C@@H](Cc2cscn2)c2nc(Cc3ccc(C(=O)NO)cc3)no2)cc1OC")
5.00
>>> endpoint_value("Cn1c(Sc2c(F)cc(C(=O)NO)cc2F)nnc1-c1cccc2ccccc12")
5.84
>>> endpoint_value("Nn1c(Sc2ccc(C(=O)NO)cc2)nnc1-c1ccc(OC(F)F)cc1")
5.88
>>> endpoint_value("O=C(NO)c1cc(F)c(Cn2nnc(-c3ccccn3)n2)c(F)c1")
5.98
>>> endpoint_value("Cn1c(Sc2c(F)cc(C(=O)NO)cc2F)nnc1-c1cccs1")
5.86
>>> endpoint_value("O=C(NO)c1cc(F)c(Cn2nnnc2-c2ccccn2)c(F)c1")
6.22
>>> endpoint_value("CCN(CC)S(=O)(=O)c1cccc(-c2nnc(Sc3ccc(C(=O)NO)cc3)n2N)c1")
5.80
>>> endpoint_value("O=C(NO)c1cc(F)c(Cn2nnc(-c3ccco3)n2)c(F)c1")
6.17
>>> endpoint_value("CN(C)c1cccc(-c2nnc(Sc3c(F)cc(C(=O)NO)cc3F)n2C)c1")
6.14
>>> endpoint_value("Cn1c(Sc2ccc(C(=O)NO)cc2)nnc1-c1cccs1")
5.60
>>> endpoint_value("O=C(NO)c1cc(F)c(Cn2nnc(-c3cccs3)n2)c(F)c1")
6.08
>>> endpoint_value("O=C(NO)c1cc(F)c(Cn2nnnc2-c2cccs2)c(F)c1")
6.18
